# Tested on: B. thailandensis ATCC 700388
# experimental protocol: microbe, parasite or virus in culture
# Format: cell-based
# test settings: Burkholderia thailandensis, ATCC700388, read-out: Minimum inhibitory concentration (MIC), B. thailandensis ATCC 700388
The following compounds are listed with their measured MIC values.

compound	experimental value
O=C(O)c1c(F)ccc2c1OB(O)[C@@H](NC(=O)C(NC(=O)N1CCN(C3CCN(C(=O)c4cccc(O)c4)CC3)C(=O)C1=O)c1cc(F)c(O)c(O)c1Cl)C2 (stereo partly drawn)	< 1 µg/mL
O=C(NCCCN1CCN(C(=O)N[C@@H](C(=O)N[C@H]2Cc3ccc(F)c(C(=O)O)c3OB2O)c2cc(F)c(O)c(O)c2Cl)C(=O)C1=O)c1ccc(O)cc1Cl (single isomer, unassigned)	< 1 µg/mL

Please look at the following compound next.
# input State its MIC: O=C(O)c1c(F)ccc2c1OB(O)[C@@H](NC(=O)C(NC(=O)N1CCN(S(=O)(=O)c3ccc(O)c(O)c3Cl)C1=O)c1ccc(P(=O)(O)O)cc1)C2 (stereo partly drawn)
# output < 1 µg/mL
